Task for the reader: assign each of the following molecules its reported TGI.
Tested on: HOP-92 NSCLC
Experiment: NCI tumour cell line growth inhibition, 48 h

See these solved cases before continuing.
CC(=O)C(C(c1ccccc1)N1CCOCC1)N1CCOCC1 (stereo not given) | > 100 µM
Nc1n[nH]c2cccc(C#Cc3cccc(NC(=O)c4cccc(C(F)(F)F)c4)c3)c12 | 5.24 µM
COc1ccc2c(c1)/C(=C\c1c(Cl)[nH]c3cc(C)c(OC)cc13)C(=O)N2 | 22.4 µM
CC(=O)SCCC(NC(=S)Nc1ccccc1)P(=O)(Oc1ccccc1)Oc1ccccc1 (stereo not given) | > 100 µM

Each molecule below has a recorded value; state its TGI.
1. CC(=O)OCC1OC(N2C(C)=C(C(C)=O)C(c3ccc(Cl)cc3)C(C#N)=C2S)C(OC(C)=O)C(OC(C)=O)C1OC(C)=O (stereo not given)
2. COC(=O)c1csc([C@@H](OC(=O)[C@H](C)[C@H](CCCC(C)(Cl)Cl)OC(=O)c2csc([C@H](O)CO)n2)C(C)C)n1
3. O=C(O)c1c2c(cc3c1CC(Cc1ccccc1)C3=O)CCC2 (stereo not given)
4. O=C(O)CSCCc1ccccc1
5. COC(=O)C(=O)CC(=O)CCn1[nH]c(=O)c(Cl)c(Cl)c1=O
6. OC(CC1CCCCN1)c1ccc2c(c1)oc1ccccc12 (stereo not given)

1: > 100 µM; 2: 23 µM; 3: > 100 µM; 4: > 100 µM; 5: > 100 µM; 6: > 100 µM

----------
Test system: A498 renal
Assay: NCI tumour cell line growth inhibition, 48 h; in the data active = GI50 below about 0.43 µM; inactive = the rest
Pick from YES (active), NO (inactive) when you respond.

Reference set, count: 5
CN(C)C/C=C/C(=O)Nc1ccc(C(=O)N[C@@]2(C)CCC[C@@H](Nc3ncc(Cl)c(-c4c[nH]c5ccccc45)n3)C2)nc1 | YES
CCOC(=O)[CH-]C(=O)C12CC3CC(CC(C3)C1)C2.CCOC(=O)[CH-]C(=O)C12CC3CC(CC(C3)C1)C2.CC[O-].CC[O-].[Ti+4] | NO
Cc1nnc(-c2ccc(C)c(-c3ccc(C(=O)Nc4cccc(C#N)c4)cc3)c2)o1 | NO
N[C@H](C(=O)O)[C@@H]1CC(Cl)=NO1 | NO
CCCC(C)c1ccc(OCCCCCCN2CCNCC2)cc1 (stereo unspecified) | NO

// next entry
Short answer needed: outcome of this test for COc1ccc2c(c1)NC1=C(C(=O)OC1)C2c1cc(OC)c(OC)c(OC)c1 (stereo unspecified) ? YES

----------
Tested on: SF-295 CNS
Assay: NCI tumour cell line growth inhibition, 48 h
metric name: TGI

CC1(C)N/C(=C\[N+](=O)[O-])C(C)(C)N1O | > 10 µM
OC(CNc1ccccn1)c1ccccc1 (configuration not stated) | > 100 µM
CC(=O)Oc1cc2c(cc1OC(C)=O)C1(C)CCC2(C)c2cc(OC(C)=O)c(OC(C)=O)cc21 | 58.8 µM
Cc1nc2ccc(Br)cc2c(=O)n1-c1nnc(C(C)(C)C)s1 | > 10 µM
CCOc1cccc(/C=N/NC(=O)c2cccc(Nc3ccnc(C(F)(F)F)c3)c2)c1O | 27.9 µM

Quick request: TGI for each listed item, please.
1. COc1ccc2c(c1)C(=O)/C(=C/c1cccc(OCC(=O)c3ccccc3)c1)O2
2. COc1ccc2c(c1)/C(=C\c1c(Cl)[nH]c3cc(C)c(OC)cc13)C(=O)N2
3. Cc1cn(C2CC(OC(=O)c3ccc(Cl)cc3)C(COC(=O)c3ccc(Cl)cc3)O2)c(=O)[nH]c1=O (configuration not stated)
4. COC(=O)[C@@H]1C[C@H]2OC(=O)CC[C@]2(C)O[C@H]1[C@H]1O[C@@](C)(O)CCC[C@H]1C
5. O=C(Nc1cccc(O)c1)C(=O)C1C(=O)NC(=S)NC1=O
6. O=C(/C=C/c1ccc(O)c(O)c1)OCC(OC(=O)/C=C/c1ccc(O)c(O)c1)C(=O)O (configuration not stated)
7. COc1cc(Nc2ncccc2C(=O)Nc2nc3ccc(F)cc3s2)cc(OC)c1OC

["38.1 µM", "13.4 µM", "> 100 µM", "> 50 µM", "> 100 µM", "> 100 µM", "> 100 µM"]

Reference for the values: PubChem BioAssay (NCI)
